In this section we review reported growth values for a set of compounds.
# System: OVCAR-8 ovarian
# protocol_summary: NCI-60 one-dose screen, 48 h (100 = growth as untreated, 0 = no growth, -100 = all killed)
# cond: 10 µM unless noted
This is part of a sample that, as a whole, favours compounds with a hit. Of some 83,000 tested, about 20% had one in any assay.
readout: growth (%)

compound	unit_spec	result_value
CC/C(=C(/c1ccc(Cl)cc1)c1ccc(OCCN(C)C)cc1)c1ccc(Cl)cc1	%	75.1
[O-]/[N+](=C\c1ccc(-n2cc(Cc3ccccc3Cc3cn(-c4ccc(/C=[N+](/[O-])c5ccccc5)cc4)nn3)nn2)cc1)c1ccccc1	%	103
Cc1cc(S(=O)(=O)/N=C(\N)n2nc(C)c(C)c2C)c(SCc2ccccc2)cc1Cl	%	72.8
N#Cc1ccc(O)c(C2=NCC(c3ccccc3)O2)c1 (stereo not given)	%	19.6
COc1ccc(C(=O)c2cc3c(N)c(C(=O)Nc4ccc(C)cc4)sc3nc2C)cc1	%	22
